TARGET OR SYSTEM: human IDO1 (Homo sapiens, UniProt P14902)
Sequence (P14902 whole entry): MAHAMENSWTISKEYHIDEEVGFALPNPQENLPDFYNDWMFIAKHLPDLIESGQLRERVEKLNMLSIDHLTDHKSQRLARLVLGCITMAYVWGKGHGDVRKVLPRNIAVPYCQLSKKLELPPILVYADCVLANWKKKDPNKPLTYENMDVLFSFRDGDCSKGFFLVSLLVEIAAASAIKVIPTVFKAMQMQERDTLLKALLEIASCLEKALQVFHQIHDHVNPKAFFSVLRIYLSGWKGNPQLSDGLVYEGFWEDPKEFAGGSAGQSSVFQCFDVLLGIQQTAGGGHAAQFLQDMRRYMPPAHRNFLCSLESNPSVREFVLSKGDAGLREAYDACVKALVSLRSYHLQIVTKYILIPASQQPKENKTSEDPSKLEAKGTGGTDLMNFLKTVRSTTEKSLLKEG
RUN DESCRIPTION: Assessment of human IDO-1 inhibitory activity in HEK cells (human IDO1/HEK293 cells, kynurenine read-out with Ehrlich reagent, absorbance 490 nm)
Format: cell-based
Design: expressed in transfected cells
CONDITION SUMMARY: HEK Human IDO-1 cellular assay
PARAMETER MEASURED: IC50

COMPOUND: COC(Cc1ccc(N(CC(C)C)C2CCCCC2)c(NC(=O)Nc2ccc(Cl)cc2F)c1)C(=O)O (stereo not shown) [Example 1012]
READING: < 50 nM

COMPOUND: COCC(CC(=O)O)c1ccc(N(CC(C)C)CC(C)C)c(NC(=O)Nc2cc(C)on2)c1 (racemic) [Example 998]
READING: < 50 nM

COMPOUND: CCC(CC(=O)O)c1ccc(N2CCOC[C@H]2C(C)C)c(NC(=O)Nc2ccc(OC)cc2F)c1 (single isomer, unassigned) [Example 897]
READING: > 50 nM

COMPOUND: CCC(CC(=O)O)c1ccc(N(CC2CC2)C2CCOCC2)c(Nc2ccc(Cl)cc2)c1 (single isomer, unassigned) [Example 702]
READING: < 5 nM
